# protein stability index annotations
# System: Saccharomyces cerevisiae
# Method notes: protein stability index of tFT-peptide fusion (C-terminal peptide) (PSI (0-1 scale)); higher = more stable (slower turnover);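 note: PSI is a weighted mean of sequencing reads over stability bins, variants kept only with over 10 reads, mCherry proximal and sfGFP distal, peptide attached via GGGS linker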
# Particulars: genetic background: wild type; temperature: 30 C
Measurement name: protein stability index

Query sequence: PPSSPALPSDTP
Measured value: 0.694

Query sequence: VMWNLVCLRRSQ
Measured value: 0.627

Query sequence: LRLPAPPLASAC
Measured value: 0.596

Query sequence: SPSPPSLLPAPS
Measured value: 0.74

Query sequence: GVGLSGVGGLGR
Measured value: 0.644

Query sequence: KPLPSHYPGRTP
Measured value: 0.658

Query sequence: QTKSPAKREKTC
Measured value: 0.665

Query sequence: EVKERGRGCREG
Measured value: 0.659

Query sequence: GFSLGAPRPFVQ
Measured value: 0.718

Query sequence: FGGFYGRRVLII
Measured value: 0.327

Query sequence: SLFLLFRSRACS
Measured value: 0.539

Query sequence: FMRKLVVLVVLG
Measured value: 0.347

Query sequence: TFPATSLPSFSL
Measured value: 0.686

Query sequence: YVCLVWHRNFFS
Measured value: 0.259

Query sequence: FSNSSASPPSLS
Measured value: 0.664

Query sequence: PPSPLPQPRPQT
Measured value: 0.695

Query sequence: TSQHLQNHYKKI
Measured value: 0.701

Query sequence: SHLGTITPSSLL
Measured value: 0.662

Query sequence: FGGEGGEEMAGG
Measured value: 0.789

###

# Tested on: Saccharomyces cerevisiae
# Method notes: protein stability index of tFT-peptide fusion (C-terminal peptide) (PSI (0-1 scale)); higher = more stable (slower turnover)
# Particulars: genetic background: doa10 deletion; temperature: 30 C
Quick rule for you: protein stability index at 0.3 or higher means Fulfilled, lower means Not fulfilled.

Query sequence: LPPPYSPRLFHN
Label: Not fulfilled
--
Query sequence: LCVVFCIRTYRV
Label: Not fulfilled
--
Query sequence: GRGFVLSVAVVA
Label: Fulfilled
--
Query sequence: VCPCCPYVMIAG
Label: Fulfilled
--
Query sequence: SPSTPQALSNFS
Label: Fulfilled
--
Query sequence: PLPSEKAPTLLL
Label: Fulfilled
--
Query sequence: PYVHPFRCYWVL
Label: Not fulfilled
--
Query sequence: VAFLYCHFFYCI
Label: Fulfilled
--
Query sequence: MVVILLVHWEYV
Label: Not fulfilled
--
Query sequence: FLFCACIRVFSY
Label: Not fulfilled
--
Query sequence: VVGVVVCWGCGW
Label: Fulfilled
--
Query sequence: PISNMSIILLFL
Label: Fulfilled
--
Query sequence: CVCPFCVWVSCL
Label: Not fulfilled
--
Query sequence: VSCLDLCFVISR
Label: Fulfilled
--
Query sequence: LFFRLLCAFLFL
Label: Fulfilled
--
Query sequence: LILLTFTLRVPV
Label: Not fulfilled
--
Query sequence: CGSFWVNVLCAV
Label: Not fulfilled
--
Query sequence: RSFNVGLELLVW
Label: Not fulfilled
--
Query sequence: VLSCVWFVVVGV
Label: Not fulfilled
--
Query sequence: VRWLVFFLFLFG
Label: Fulfilled
--
Query sequence: LPPTPPLSPPPH
Label: Fulfilled
--
Query sequence: TLSRTPVSPSAP
Label: Fulfilled
--
Query sequence: ASWRYMFPVTLG
Label: Fulfilled
--
Query sequence: APPSFPPLLLLS
Label: Not fulfilled
--
Query sequence: TDVLLLQLLISV
Label: Not fulfilled
--
Query sequence: KHTGTGNAPNCD
Label: Fulfilled
--
Query sequence: SWSLRLSTIFSV
Label: Not fulfilled
--
Query sequence: TSFSSGEALGVG
Label: Fulfilled
--
Query sequence: VVFLFVEAVVGV
Label: Not fulfilled
--
Query sequence: LCYVLLWLLCRS
Label: Fulfilled
--
Query sequence: GTVRSLLKWRCS
Label: Not fulfilled
--
Query sequence: FYLSFWFLIFFF
Label: Fulfilled
--
Query sequence: PPQDQAPVGVND
Label: Fulfilled
--
Query sequence: LCLICLFLLKVL
Label: Not fulfilled
--
Query sequence: FLWAVSLCRSLV
Label: Not fulfilled
--
Query sequence: SMPWFWFVRGIG
Label: Fulfilled
--
Query sequence: YVCLVWHRNFFS
Label: Not fulfilled
--
Query sequence: LSASFYFVFFSN
Label: Not fulfilled
--
Query sequence: LSRLIFKVSVLM
Label: Not fulfilled
--
Query sequence: FILFSEMFASSV
Label: Not fulfilled
--
Query sequence: RKGQNKKRNKIY
Label: Not fulfilled
--
Query sequence: CWYVCSFWPYVV
Label: Not fulfilled
--
Query sequence: DFFTSFSLFFFL
Label: Fulfilled
--
Query sequence: FLFSSLFCFLFL
Label: Fulfilled
--
Query sequence: RRVRVVCVIVAA
Label: Not fulfilled
--
Query sequence: RVGSSLIVVYCV
Label: Not fulfilled
--
Query sequence: FCICRFLFIFLG
Label: Fulfilled
--
Query sequence: CFLSWSLRFFIL
Label: Not fulfilled
--
Query sequence: AGAFRIVWWALR
Label: Fulfilled
--
Query sequence: LVFSFFFLFFFM
Label: Fulfilled
--
Query sequence: ARTWVVLLICGH
Label: Not fulfilled
--
Query sequence: WDEVVAIVVCPV
Label: Not fulfilled
--
Query sequence: FSSFLGFIRFFV
Label: Not fulfilled
--
Query sequence: YFYIRLGIAYMM
Label: Not fulfilled
--
Query sequence: AFLWSLFVFFRF
Label: Fulfilled
--
Query sequence: WVGWVVVLGCVG
Label: Not fulfilled
--
Query sequence: LCGGEWVVWVKG
Label: Not fulfilled
--
Query sequence: HPPPPPPPPSLS
Label: Fulfilled
--
Query sequence: NFSLFVHFLGLC
Label: Fulfilled
--
Query sequence: WFVLYAEVMGFW
Label: Not fulfilled
--
Query sequence: FFFLPLFLVLSL
Label: Fulfilled
--
Query sequence: TWGGGRVSLGVG
Label: Fulfilled
--
Query sequence: PSPHRAPPGGHP
Label: Fulfilled
--
Query sequence: YSIHYLRFFSLF
Label: Not fulfilled
--
Query sequence: CFFGFRAGLFLG
Label: Not fulfilled
--
Query sequence: VGDFFVLVGFVA
Label: Fulfilled
--
Query sequence: VCWVYESWKCLA
Label: Not fulfilled
--
Query sequence: PHFDLLLCLSLN
Label: Not fulfilled
--
Query sequence: VLLRSRLLRRLS
Label: Not fulfilled
--
Query sequence: FGGYLRAGVFLT
Label: Fulfilled
--
Query sequence: IGSFFLFFLLIF
Label: Fulfilled
--
Query sequence: LSRRFSLALFWT
Label: Not fulfilled
--
Query sequence: MLECIIHLTITR
Label: Fulfilled
--
Query sequence: IKRLKEVARHVS
Label: Not fulfilled
--
Query sequence: PHPPRPPCPPIL
Label: Fulfilled
--
Query sequence: WYYTWKQLVMIV
Label: Not fulfilled
--
Query sequence: DLQTVGLTRFIV
Label: Not fulfilled
--
Query sequence: VFLLCLGFLVFS
Label: Not fulfilled
--
Query sequence: VYKSTHKIYILT
Label: Fulfilled
--
Query sequence: LSPLSPLLFRLI
Label: Not fulfilled
